System: Pseudomonas aeruginosa
Test: Induction of bacterial aggregation in Pseudomonas aeruginosa PAO1 assessed as number of aggregates per 100 uL of PBS cell solution at 100 uM by optical microscopy
Assay type: functional
Activity calls are given as the source filed them. The calls are words filed in the database; no cut-off is given here.
Endpoint: Activity

Solved entries (count: 4):
CO[C@@H]1O[C@H](CO)[C@H](O)[C@H](O)[C@H]1O    inactive
CO[C@H]1O[C@H](CO)[C@H](O)[C@H](O)[C@H]1O    inactive
CO[C@H]1O[C@H](CO)[C@@H](O)[C@H](O)[C@@H]1O    inactive
CC(C)(C)c1cc2c(OCc3cn(CCOCCOCCO[C@H]4O[C@H](CO)[C@@H](O)[C@H](O)[C@@H]4O)nn3)c(c1)Cc1cc(C(C)(C)C)cc(c1OCc1cn(CCOCCOCCO[C@H]3O[C@H](CO)[C@@H](O)[C@H](O)[C@@H]3O)nn1)Cc1cc(C(C)(C)C)cc(c1OCc1cn(CCOCCOCCO[C@H]3O[C@H](CO)[C@@H](O)[C@H](O)[C@@H]3O)nn1)Cc1cc(C(C)(C)C)cc(c1OCc1cn(CCOCCOCCO[C@H]3O[C@H](CO)[C@@H](O)[C@H](O)[C@@H]3O)nn1)C2    70

Moving on to the next molecule.
Give the measured Activity for CC(C)(C)c1cc2c(OCc3cn(CCOCCOCCO[C@@H]4O[C@H](CO)[C@@H](O)[C@H](O)[C@H]4O)nn3)c(c1)Cc1cc(C(C)(C)C)cc(c1OCc1cn(CCOCCOCCO[C@@H]3O[C@H](CO)[C@@H](O)[C@H](O)[C@H]3O)nn1)Cc1cc(C(C)(C)C)cc(c1OCc1cn(CCOCCOCCO[C@@H]3O[C@H](CO)[C@@H](O)[C@H](O)[C@H]3O)nn1)Cc1cc(C(C)(C)C)cc(c1OCc1cn(CCOCCOCCO[C@@H]3O[C@H](CO)[C@@H](O)[C@H](O)[C@H]3O)nn1)C2
inactive

* * *

Test system: Pseudomonas aeruginosa
Assay: Induction of bacterial aggregation in Pseudomonas aeruginosa PAO1 expressing deltalecB mutant assessed as number of aggregates per 100 uL of PBS cell solution at 100 uM by optical microscopy
Assay type: functional
The source made the active and inactive calls. No cut-off for these calls is given here.
Endpoint: Activity

Solved entries (count: 4):
CO[C@H]1O[C@H](CO)[C@@H](O)[C@H](O)[C@@H]1O    inactive
C[C@@H]1O[C@@H](OCCOCCOCCn2cc(COc3c4cc(C(C)(C)C)cc3Cc3cc(C(C)(C)C)cc(c3OCc3cn(CCOCCOCCO[C@@H]5O[C@@H](C)[C@@H](O)[C@@H](O)[C@@H]5O)nn3)Cc3cc(C(C)(C)C)cc(c3OCc3cn(CCOCCOCCO[C@@H]5O[C@@H](C)[C@@H](O)[C@@H](O)[C@@H]5O)nn3)Cc3cc(C(C)(C)C)cc(c3OCc3cn(CCOCCOCCO[C@@H]5O[C@@H](C)[C@@H](O)[C@@H](O)[C@@H]5O)nn3)C4)nn2)[C@@H](O)[C@H](O)[C@@H]1O    50
CO[C@@H]1O[C@H](CO)[C@H](O)[C@H](O)[C@H]1O    inactive
CC(C)(C)c1cc2c(OCc3cn(CCOCCOCCO[C@@H]4O[C@H](CO)[C@@H](O)[C@H](O)[C@H]4O)nn3)c(c1)Cc1cc(C(C)(C)C)cc(c1OCc1cn(CCOCCOCCO[C@@H]3O[C@H](CO)[C@@H](O)[C@H](O)[C@H]3O)nn1)Cc1cc(C(C)(C)C)cc(c1OCc1cn(CCOCCOCCO[C@@H]3O[C@H](CO)[C@@H](O)[C@H](O)[C@H]3O)nn1)Cc1cc(C(C)(C)C)cc(c1OCc1cn(CCOCCOCCO[C@@H]3O[C@H](CO)[C@@H](O)[C@H](O)[C@H]3O)nn1)C2    inactive

Moving on to the next compound.
Give the measured Activity for CO[C@H]1O[C@H](CO)[C@H](O)[C@H](O)[C@H]1O
inactive
